Recorded values, source patent US8580965B2.

Attribute: inhibition at 10 µM
- measurement target: B1R receptor of the rat (bradykinin 1 receptor) (Rattus norvegicus, UniProt P97583)
- Construct: host or cells: CHO K1 cells (rB1R cells)
- Sequence (P97583 1-337): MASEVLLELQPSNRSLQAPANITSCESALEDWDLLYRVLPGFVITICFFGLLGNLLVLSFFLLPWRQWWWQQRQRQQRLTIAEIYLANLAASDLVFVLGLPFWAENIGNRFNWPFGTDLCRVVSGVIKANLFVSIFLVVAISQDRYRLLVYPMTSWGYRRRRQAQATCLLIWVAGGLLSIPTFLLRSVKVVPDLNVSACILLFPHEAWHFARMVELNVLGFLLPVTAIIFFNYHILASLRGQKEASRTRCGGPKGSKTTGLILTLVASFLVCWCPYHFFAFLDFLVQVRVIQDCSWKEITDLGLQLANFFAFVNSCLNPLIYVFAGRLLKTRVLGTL
- experimental protocol: FLIPR Ca2+ assay (Fluo-4) on CHO K1 cells stably transfected with the B1R gene of the rat; % activation and % inhibition at 10 μM
- Format: cell-based
- measurement conditions: CHO-K1, test substance 10 μM; CHO K1 rB1R cells; Ca2+ inflow after 100 nM Des-Arg9-bradykinin; read-out: B1R antagonism, rat [10 μM] % inhibition
Give the quantity in %, number only.

molecule: O=C(COC1CCN(S(=O)(=O)c2ccc(F)cc2)C1)N1CCC(O)(c2ccccn2)CC1 (stereo not drawn)
unit of measure: %
observed result: -7.05

## Task Dear colleague, please send me the reported inhibition at 10 µM for `Cc1cc(Cl)cc(Cl)c1S(=O)(=O)N(C)CCOCC(=O)N1CCC(O)(c2ccccn2)CC1` when you can.
## Result 99.2

## Task Dear colleague, please send me the reported inhibition at 10 µM for `Cc1ccc(F)cc1S(=O)(=O)N(C)CCOCC(=O)N1CCC(O)(Cc2ccccc2)CC1` when you can.
## Result 22.9

----------
Attribute: inhibition at 10 µM
- measurement target: B1R receptor of the rat (bradykinin 1 receptor) (Rattus norvegicus, UniProt P97583)
- Construct: host or cells: CHO K1 cells (rB1R cells)
- experimental protocol: FLIPR Ca2+ assay (Fluo-4) on CHO K1 cells stably transfected with the B1R gene of the rat; % activation and % inhibition at 10 μM
- Assay type: cell-based
- measurement conditions: CHO-K1, test substance 10 μM; CHO K1 rB1R cells; Ca2+ inflow after 100 nM Des-Arg9-bradykinin; read-out: B1R antagonism, rat [10 μM] % inhibition
Give the quantity in %, number only.

For orientation, consider the following solved cases.
compound: O=C(COCC1CCCCN1S(=O)(=O)c1cc(Cl)sc1Cl)N1CCC(O)(c2ccccc2)CC1 (stereo not drawn)
unit of measure: %
inhibition at 10 µM: 78.3

compound: COc1cc(C)c(S(=O)(=O)N2CCCC2COCC(=O)N2CCC(O)(Cc3ccccc3)CC2)c(C)c1 (stereo not drawn)
unit of measure: %
inhibition at 10 µM: 100

Would you kindly look at the next entry?
## Task Dear colleague, please send me the reported inhibition at 10 µM for COc1cc(C)c(S(=O)(=O)N2CCCCC2COCC(=O)N2CCC(O)(c3cccc(F)c3)CC2)c(C)c1 (stereo not drawn) when you can.
## Result 100

----------
- measurement target: human B1R receptor (bradykinin 1 receptor) (Homo sapiens, UniProt P46663)
- Construct: host or cells: CHO K1 cells (hB1R cells)
- Sequence (P46663 whole entry): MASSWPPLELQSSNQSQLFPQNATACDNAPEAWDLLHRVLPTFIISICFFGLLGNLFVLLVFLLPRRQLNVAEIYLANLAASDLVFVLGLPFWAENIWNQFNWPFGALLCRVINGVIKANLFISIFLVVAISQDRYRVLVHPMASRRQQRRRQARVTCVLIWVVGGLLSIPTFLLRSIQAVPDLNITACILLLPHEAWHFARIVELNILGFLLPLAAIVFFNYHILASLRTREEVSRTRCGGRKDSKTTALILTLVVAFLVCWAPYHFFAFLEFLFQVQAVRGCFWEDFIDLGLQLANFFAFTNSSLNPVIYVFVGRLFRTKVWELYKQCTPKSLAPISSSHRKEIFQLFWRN
- experimental protocol: FLIPR Ca2+ assay (Fluo-4) on CHO K1 cells stably transfected with the human B1R gene; % activation and % inhibition at 10 μM
- Format: cell-based
- measurement conditions: CHO-K1, test substance 10 μM; CHO K1 hB1R cells; Ca2+ inflow after 0.5 nM Lys-Des-Arg9-bradykinin; read-out: B1R antagonism, human [10 μM] % inhibition
Attribute: inhibition at 10 µM
Give the quantity in %, number only.

molecule: COc1ccc(S(=O)(=O)N(C)CCOCC(=O)N2CCC(O)(Cc3ccccc3)CC2)cc1OC
measurement target: human B1R receptor (bradykinin 1 receptor) (Homo sapiens, UniProt P46663)
observed result: 31.2

## Task Dear colleague, please send me the reported inhibition at 10 µM for `COc1cc(C)c(S(=O)(=O)N(C)CCOCC(=O)N2CCC(O)(c3cccs3)CC2)c(C)c1` when you can.
## Result 106

## Task Dear colleague, please send me the reported inhibition at 10 µM for `COc1cc(C)c(S(=O)(=O)N(CCOCC(=O)N2CCC(O)(c3cccnc3)CC2)C2CC2)c(C)c1` when you can.
## Result 104

## Task Dear colleague, please send me the reported inhibition at 10 µM for `Cc1ccc2ccccc2c1S(=O)(=O)N(C)CCOCC(=O)N1CCC(O)(c2cccnc2)CC1` when you can.
## Result 100

## Task Dear colleague, please send me the reported inhibition at 10 µM for `Cc1cc(Cl)cc(Cl)c1S(=O)(=O)N(C)CCOCC(=O)N1CCC(O)(Cc2ccccc2)CC1` when you can.
## Result 97.8

## Task Dear colleague, please send me the reported inhibition at 10 µM for O=C(COCC1Cc2ccccc2CN1S(=O)(=O)c1ccc(Cl)c(Cl)c1)N1CCC(O)(c2cccnc2)CC1 (stereo not drawn) when you can.
## Result 93.7

## Task Dear colleague, please send me the reported inhibition at 10 µM for O=C(COCC1CCCCN1S(=O)(=O)c1csc2ccccc12)N1CCC(O)(Cc2ccccc2)CC1 (stereo not drawn) when you can.
## Result 96.4

## Task Dear colleague, please send me the reported inhibition at 10 µM for `COc1cc(C)c(S(=O)(=O)N(CCOCC(=O)N2CCC(O)(c3cccnc3)CC2)CC(C)C)c(C)c1C` when you can.
## Result 103

## Task Dear colleague, please send me the reported inhibition at 10 µM for COc1cc(C)c(S(=O)(=O)N2CCCCC2COCC(=O)N2CCC(O)(c3cccnc3)CC2)c(C)c1 (stereo not drawn) when you can.
## Result 104

----------
- measurement target: B1R receptor of the rat (bradykinin 1 receptor) (Rattus norvegicus)
- Construct: host or cells: CHO K1 cells (rB1R cells)
- experimental protocol: FLIPR Ca2+ assay (Fluo-4) on CHO K1 cells stably transfected with the B1R gene of the rat; % activation and % inhibition at 10 μM
- Format: cell-based
- measurement conditions: CHO-K1, test substance 10 μM; CHO K1 rB1R cells; Ca2+ inflow after 100 nM Des-Arg9-bradykinin; read-out: B1R antagonism, rat [10 μM] % inhibition
- Source text: The agonistic or antagonistic action of substances can be quantified on the bradykinin receptor 1 (B1R) of the species human and rat with ectopically expressing cell lines (CHO K1 cells) and with the aid of a Ca^2+-sensitive dye (Fluo-4) using a fluorescent imaging plate reader (FLIPR). […] The agonistic or antagonistic action of substances can be determined on the bradykinin 1 receptor (B1R) of the human and rat species with the following assay. […]
quantity name: inhibition at 10 µM (%)
Give the quantity in %, number only.

For orientation, consider the following solved cases.
compound: O=C(COCC1CCCN1S(=O)(=O)c1c(Cl)cccc1Cl)N1CCC(O)(c2ccc(Cl)c(C(F)(F)F)c2)CC1 (stereo not drawn) [Example 218]
unit of measure: %
observed result: 102

compound: O=C(COCC1CCCCN1S(=O)(=O)c1cccc2ccccc12)N1CCC(O)(Cc2ccccc2)CC1 (stereo not drawn) [Example 64]
unit of measure: %
observed result: 64.2

compound: COc1cc(C)c(S(=O)(=O)N2CCCCC2COCC(=O)N2CCC(O)(c3ccncc3)CC2)c(C)c1 (stereo not drawn) [Example 144]
unit of measure: %
observed result: 101

## Task Dear colleague, please send me the reported inhibition at 10 µM for COc1cc(C)c(S(=O)(=O)N(C)CCOCC(=O)N2CCC(O)(Cc3ccncc3)CC2)c(C)c1 [Example 280] when you can.
## Result 100

## Task Dear colleague, please send me the reported inhibition at 10 µM for O=C(COCC1Cc2ccccc2CN1S(=O)(=O)c1ccc(Cl)cc1Cl)N1CCC(O)(Cc2ccccc2)CC1 (stereo not drawn) [Example 81] when you can.
## Result 62.8

## Task Dear colleague, please send me the reported inhibition at 10 µM for O=C(COCC1CCCCN1S(=O)(=O)c1c(Cl)cc(C(F)(F)F)cc1Cl)N1CCC(O)(c2cccc(C(F)(F)F)c2)CC1 (stereo not drawn) [Example 164] when you can.
## Result 103

----------
Attribute: inhibition at 10 µM
- measurement target: B1R receptor of the rat (bradykinin 1 receptor) (Rattus norvegicus)
- Construct: host or cells: CHO K1 cells (rB1R cells)
- experimental protocol: FLIPR Ca2+ assay (Fluo-4) on CHO K1 cells stably transfected with the B1R gene of the rat; % activation and % inhibition at 10 μM
- Format: cell-based
- measurement conditions: CHO-K1, test substance 10 μM; CHO K1 rB1R cells; Ca2+ inflow after 100 nM Des-Arg9-bradykinin; read-out: B1R antagonism, rat [10 μM] % inhibition
Number plus unit, in that order.

molecule: O=C(COCC1CCCCN1S(=O)(=O)c1c(Cl)cc(C(F)(F)F)cc1Cl)N1CCC(O)(c2ccc(Cl)c(C(F)(F)F)c2)CC1 (stereo not shown) [Example 165]
measurement target: B1R receptor of the rat (bradykinin 1 receptor) (Rattus norvegicus)
observed result: 104%
//
molecule: COc1cc(C)c(S(=O)(=O)N(CCOCC(=O)N2CCC(O)(c3cccnc3)CC2)CC2CC2)c(C)c1C [Example 240]
measurement target: B1R receptor of the rat (bradykinin 1 receptor) (Rattus norvegicus)
observed result: 99.4%
//
molecule: COc1cc(C)c(S(=O)(=O)N(C)CCOCC(=O)N2CCC(O)(c3cccnc3)CC2)c(C)c1 [Example 143]
measurement target: B1R receptor of the rat (bradykinin 1 receptor) (Rattus norvegicus)
observed result: 100%

Would you kindly look at the next entry?
## Task Dear colleague, please send me the reported inhibition at 10 µM for Cc1cc(S(=O)(=O)N(C)CCOCC(=O)N2CCC(O)(c3cccc(C(F)(F)F)c3)CC2)c(C)s1 [Example 258] when you can.
## Result 96.1%
